Where these numbers come from: the supplement of paper PMC10981050

Recorded cell viability by entry
- Test system: MARIMO
- assayInfo: cell viability relative to vehicle control; higher = less cytotoxic;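 note: after 48 h exposure read by CellTiter-Glo luminescence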
- settings: 10 µM; SRSF2 genotype: SRSF2 wt/wt
Only the number, expressed in %, is required.

Example cases with answers are listed next.
[
  {
    "compound": "Cc1cc(Nc2cc(N3CCN(C)CC3)nc(/C=C/c3ccccc3)n2)n[nH]1 [ENMD-2076 L-(+)-Tartaric acid]",
    "cell viability [%]": 30.7
  },
  {
    "compound": "CC(C)=CCC[C@](C)(O[C@@H]1O[C@H](CO[C@@H]2OC[C@@H](O)[C@H](O)[C@H]2O)[C@@H](O)[C@H](O)[C@H]1O)[C@H]1CC[C@]2(C)[C@@H]1[C@H](O)C[C@@H]1[C@@]3(C)CC[C@H](O[C@@H]4O[C@H](CO)[C@@H](O)[C@H](O)[C@H]4O[C@@H]4O[C@H](CO)[C@@H](O)[C@H](O)[C@H]4O)C(C)(C)[C@@H]3CC[C@]12C [Ginsenoside Rb3]",
    "cell viability [%]": 103
  }
]

Let us move to another entry and its cell viability.
Query: Which cell viability is reported for this compound? COc1ccc(/C=C/c2cc(O)cc(O[C@@H]3O[C@H](CO)[C@@H](O)[C@H](O)[C@H]3O)c2)cc1O [Rhapontin]
Response: 99.8

###

- Tested on: MARIMO
- assayInfo: cell viability relative to vehicle control; higher = less cytotoxic
- settings: 10 µM; SRSF2 genotype: SRSF2 P95H/wt
valueKind: cell viability (%)
Only the number, expressed in %, is required.

Example cases with answers are listed next.
[
  {
    "compound": "C=C1CC[C@H](O)C/C1=C/C=C1\\CCC[C@]2(C)[C@@H]([C@H](C)/C=C/[C@H](C)C(C)C)CC[C@@H]12 [Vitamin D2 (Ergocalciferol)]",
    "unitsSymbol": "%",
    "val": 101
  },
  {
    "compound": "C#C[C@]1(O)CC[C@H]2[C@@H]3CCc4cc(OC5CCCC5)ccc4[C@H]3CC[C@@]21C",
    "unitsSymbol": "%",
    "val": 62.4
  },
  {
    "compound": "Nc1ccc(Cl)cc1C(=O)C(F)(F)F [4-Chloro-2-(trifluoroacetyl)aniline hydrochl]",
    "unitsSymbol": "%",
    "val": 101
  },
  {
    "compound": "Oc1ccc(/C=C/c2cc(O)cc(O)c2)cc1",
    "unitsSymbol": "%",
    "val": 70.1
  },
  {
    "compound": "COc1c(O)cc2c(c1O)[C@@H]1O[C@H](CO)[C@@H](O)[C@H](O)[C@H]1OC2=O",
    "unitsSymbol": "%",
    "val": 89.2
  }
]

Query: Which cell viability is reported for this compound? CC(C)(Oc1ccc(C2CC2(Cl)Cl)cc1)C(=O)O (centres undefined) [Ciprofibrate]
Response: 89.6

Query: Which cell viability is reported for this compound? "CCn1c(=O)c2c(nc(/C=C/c3ccc(OC)c(OC)c3)n2C)n(CC)c1=O"
Response: 81.1

Query: Which cell viability is reported for this compound? CCCCCC1=C(C)CCC1=O [Dihydrojasmone]
Response: 101

Query: Which cell viability is reported for this compound? "COc1ccc2cc(CCC(C)=O)ccc2c1"
Response: 97.1

###

- System: MARIMO
- assayInfo: cell viability relative to vehicle control; higher = less cytotoxic
- settings: 10 µM; SRSF2 genotype: SRSF2 P95H/wt
Assign labels as follows, please: criterion met for cell viability below 90%; criterion not met for cell viability equal to or exceeding 90%.

Example entries begin here.
[
  {
    "compound": "O=C(Nc1ccc(O)cc1)c1ccccc1O [Osalmid]",
    "measurementTarget": "MARIMO",
    "assignedLabel": "criterion not met"
  },
  {
    "compound": "CC1=C(C(=O)OC(C)C)C(c2cccc([N+](=O)[O-])c2)C(C(=O)OC2CN(C(c3ccccc3)c3ccccc3)C2)=C(N)N1 (centres undefined) [Azelnidipine]",
    "measurementTarget": "MARIMO",
    "assignedLabel": "criterion met"
  },
  {
    "compound": "O=C(O)c1ccc(O)c(O)c1 [Protocatechuic acid]",
    "measurementTarget": "MARIMO",
    "assignedLabel": "criterion not met"
  }
]

Query: Please indicate whether the reported cell viability of CC(C)=CCc1cc2c(cc1O)O[C@H](c1ccc(O)cc1)CC2=O [Bavachin] is strictly below 90%.
Response: criterion not met

Query: Please indicate whether the reported cell viability of CC(C)CCCC(C)CCCC(C)CCCCC(C)CCCC(C)CCCC(C)C (centres undefined) [Squalane] is strictly below 90%.
Response: criterion not met

Query: Please indicate whether the reported cell viability of COc1cc(N)c(Cl)cc1C(=O)NC1CCN(CCCOc2ccc(F)cc2)CC1OC (centres undefined) [Cisapride hydrate] is strictly below 90%.
Response: criterion not met

Query: Please indicate whether the reported cell viability of CCCNC(C)C(=O)Nc1ccccc1C (centres undefined) [Prilocaine] is strictly below 90%.
Response: criterion met

Query: Please indicate whether the reported cell viability of "CO[C@H]1CC[C@H](N2C(=O)CNc3ncc(-c4ccc(C(C)(C)O)nc4)nc32)CC1" is strictly below 90%.
Response: criterion met

###

Recorded cell viability by entry
- Tested on: OCI-AML2
- assayInfo: cell viability relative to vehicle control; higher = less cytotoxic
- settings: 10 µM; SRSF2 genotype: P95H/wt
Only the number, expressed in %, is required.

Example cases with answers are listed next.
[
  {
    "compound": "CN(CCOc1ccc(CC2SC(=O)NC2=O)cc1)c1ccccn1 (stereo not given) [Rosiglitazone (Avandia)]",
    "cell viability / %": 94
  },
  {
    "compound": "C[C@H](CC[C@@]1(O)O[C@H]2C[C@H]3[C@@H]4CC=C5C[C@@H](O[C@@H]6O[C@H](CO)[C@@H](O[C@@H]7O[C@@H](C)[C@H](O)[C@@H](O)[C@H]7O)[C@H](O)[C@H]6O[C@@H]6O[C@@H](C)[C@H](O)[C@@H](O)[C@H]6O)CC[C@]5(C)[C@H]4CC[C@]3(C)[C@H]2[C@@H]1C)CO[C@@H]1O[C@H](CO)[C@@H](O)[C@H](O)[C@H]1O",
    "cell viability / %": 0.74
  },
  {
    "compound": "Cc1[nH]c(=O)c(C#N)cc1-c1ccncc1",
    "cell viability / %": 101
  },
  {
    "compound": "N[C@@H](Cc1cc(I)c(O)c(I)c1)C(=O)O [3,5-Diiodotyrosine Dihydrate]",
    "cell viability / %": 100
  }
]

Query: Which cell viability is reported for this compound? C=C1CC[C@@H]2[C@](C)(COC(=O)CCC(=O)O)[C@H](OC(=O)CCC(=O)O)CC[C@@]2(C)[C@@H]1/C=C/C1=CCOC1=O [Dehydroandrographolide Succinate Potasium Sa]
Response: 109

###

- System: MOLM14
- assayInfo: cell viability relative to vehicle control; higher = less cytotoxic
- settings: 10 µM; SRSF2 genotype: SRSF2 P95H/wt
valueKind: cell viability
Quote the value and follow it with the unit of measurement.

Example cases with answers are listed next.
[
  {
    "compoundStructure": "O=C(c1ccc(Nc2nccc(-c3cc4ccccc4s3)n2)cc1)N1CCC(N2CCCC2)CC1",
    "cell viability": "0.29%"
  },
  {
    "compoundStructure": "CCOC(=O)c1ccc(N2NC(=O)C(=Cc3ccc([N+](=O)[O-])o3)C2=O)cc1",
    "cell viability": "90.8%"
  },
  {
    "compoundStructure": "CCc1c2c(nc3ccc(O)cc13)-c1cc3c(c(=O)n1C2)COC(=O)[C@]3(O)CC",
    "cell viability": "1.02%"
  },
  {
    "compoundStructure": "N#Cc1ccc(C(c2ccc(C#N)cc2)n2cncn2)cc1",
    "cell viability": "96.8%"
  }
]

Query: Which cell viability is reported for this molecule? "Cc1ccnc(NS(=O)(=O)c2ccc(N)cc2)n1"
Response: 99.7%

###

Recorded cell viability by entry
- Tested on: K562
- assayInfo: cell viability relative to vehicle control; higher = less cytotoxic
- settings: 10 µM; SRSF2 genotype: SRSF2 wt/wt
Structures can show the parent of a compound that is named as a salt.
Only the number, expressed in %, is required.

Example cases with answers are listed next.
[
  {
    "compound": "Cc1c(Cn2c(C)nc3c(C(=O)O)cc(N4CCOCC4)cc32)cccc1C(F)(F)F",
    "measurementTarget": "K562",
    "cell viability [%]": 108
  },
  {
    "compound": "CC(C)c1cc(-c2ccc(F)c3ccccc23)nc(N)n1",
    "measurementTarget": "K562",
    "cell viability [%]": 94.9
  },
  {
    "compound": "COc1cccc(-c2cc(=O)c3ccccc3o2)c1N",
    "measurementTarget": "K562",
    "cell viability [%]": 95.6
  },
  {
    "compound": "CN(CCOc1ccc(CC2SC(=O)NC2=O)cc1)c1ccccn1 (stereo unspecified) [Rosiglitazone HCl]",
    "measurementTarget": "K562",
    "cell viability [%]": 97.4
  },
  {
    "compound": "Cc1nc(C)c(C)nc1C",
    "measurementTarget": "K562",
    "cell viability [%]": 118
  }
]

Query: Which cell viability is reported for this compound? Cc1c(-c2ccc(O)cc2)n(Cc2ccc(OCCN3CCCCCC3)cc2)c2ccc(O)cc12 [Bazedoxifene HCl]
Response: 0.96
